molecular target: Group VIA iPLA2 (GVIA PLA2) (Homo sapiens, UniProt O60733); test: In vitro Group VIA iPLA2 mixed micelle assay; type: biochemical
Sequence (O60733 whole entry): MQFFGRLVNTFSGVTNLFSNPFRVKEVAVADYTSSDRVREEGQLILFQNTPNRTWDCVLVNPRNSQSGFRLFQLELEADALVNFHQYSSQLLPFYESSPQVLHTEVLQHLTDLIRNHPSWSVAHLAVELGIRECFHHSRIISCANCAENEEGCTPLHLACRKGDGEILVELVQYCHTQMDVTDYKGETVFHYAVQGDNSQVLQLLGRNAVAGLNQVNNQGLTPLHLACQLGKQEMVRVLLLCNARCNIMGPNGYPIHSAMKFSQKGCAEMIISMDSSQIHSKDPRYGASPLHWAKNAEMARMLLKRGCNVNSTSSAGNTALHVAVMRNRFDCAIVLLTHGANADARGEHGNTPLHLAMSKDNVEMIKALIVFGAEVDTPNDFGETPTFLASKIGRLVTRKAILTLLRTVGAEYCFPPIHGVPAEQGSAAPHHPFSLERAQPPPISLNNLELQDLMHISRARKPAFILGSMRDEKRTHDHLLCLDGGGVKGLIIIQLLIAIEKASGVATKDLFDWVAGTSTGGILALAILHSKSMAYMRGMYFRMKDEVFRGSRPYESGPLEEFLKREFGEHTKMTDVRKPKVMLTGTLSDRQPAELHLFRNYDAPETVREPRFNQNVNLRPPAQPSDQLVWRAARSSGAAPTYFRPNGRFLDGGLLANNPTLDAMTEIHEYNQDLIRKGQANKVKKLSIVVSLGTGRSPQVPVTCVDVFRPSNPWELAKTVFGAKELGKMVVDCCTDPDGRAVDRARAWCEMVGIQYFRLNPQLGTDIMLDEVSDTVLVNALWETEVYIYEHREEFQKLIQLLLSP
measureName: inhibition of GVIA PLA2 (iPLA2), in words

INSERT INTO measurements (molecule, measvalue) VALUES
  ('CCCCCCCCCCCCCCC(=O)C(=O)NC(C=CC(=O)O)CCCC (stereo not shown)', 'do not inhibit GVIA PLA2'),
  ('CCC(=O)C(=O)NCCCC(=O)O', 'do not inhibit GVIA PLA2'),
  ('CCCCCCCCC=CCCCCCCCC(=O)C(=O)NCCCC(=O)O', 'do not inhibit GVIA PLA2');

###

target: GV sPLA2 (Homo sapiens, UniProt P39877); test: GV sPLA2 activity assay; type: biochemical; settings: read-out: sPLA2 inh., percent inhibition
Sequence (P39877 21-138): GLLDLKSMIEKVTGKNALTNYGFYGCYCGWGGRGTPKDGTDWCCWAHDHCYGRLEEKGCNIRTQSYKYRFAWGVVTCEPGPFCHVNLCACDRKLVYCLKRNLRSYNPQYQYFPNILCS
Field: inhibition at 0.091 mole fraction. Provide a value for each of the compounds that follow.
Write it as a number; the unit % goes unstated.

### Prompt Look up inhibition at 0.091 mole fraction for this compound: CC/C=C\CC(=O)C(=O)NCCCC(=O)OCC
### Response 96.6

### Prompt Now consider CCCC[C@H](NC(=O)C(=O)CC)C(=O)NCC(=O)OC(C)(C)C and answer again.
### Response 58.5

### Prompt What about CCCC[C@@H](COCC(=O)OC(C)(C)C)NC(=O)C(=O)CC ?
### Response 57.2

### Prompt Can you handle CCC[C@@H](COCC(=O)OCC)NC(=O)C(=O)CC next?
### Response 80.6

### Prompt Entry to check: CCOC(=O)CCNC(=O)C(=O)CC
### Response 58.8

### Prompt Same thing, different compound: CCOC(=O)c1ccc(NC(=O)C(=O)CC)cc1
### Response 66.5

### Prompt And what about the compound CCC[C@@H](/C=C/C(=O)OCC)NC(=O)C(=O)CC ?
### Response 78.3

### Prompt Do the same for C=CCOC(=O)CCCNC(=O)C(=O)CC please
### Response 37.9

### Prompt Then CCC(=O)C(=O)NCC(=O)OC(C)(C)C ?
### Response 95.9

### Prompt Note, next up: CC/C=C\CC(=O)C(=O)NCCCC(=O)OC(C)(C)C
### Response 85.3

### Prompt Query CCOC(=O)CNC(=O)C(=O)CC next
### Response 99.8

###

Target: Group IVA cPLA2 (GIVA PLA2) (Homo sapiens, UniProt P47712)
Sequence (P47712 1-749): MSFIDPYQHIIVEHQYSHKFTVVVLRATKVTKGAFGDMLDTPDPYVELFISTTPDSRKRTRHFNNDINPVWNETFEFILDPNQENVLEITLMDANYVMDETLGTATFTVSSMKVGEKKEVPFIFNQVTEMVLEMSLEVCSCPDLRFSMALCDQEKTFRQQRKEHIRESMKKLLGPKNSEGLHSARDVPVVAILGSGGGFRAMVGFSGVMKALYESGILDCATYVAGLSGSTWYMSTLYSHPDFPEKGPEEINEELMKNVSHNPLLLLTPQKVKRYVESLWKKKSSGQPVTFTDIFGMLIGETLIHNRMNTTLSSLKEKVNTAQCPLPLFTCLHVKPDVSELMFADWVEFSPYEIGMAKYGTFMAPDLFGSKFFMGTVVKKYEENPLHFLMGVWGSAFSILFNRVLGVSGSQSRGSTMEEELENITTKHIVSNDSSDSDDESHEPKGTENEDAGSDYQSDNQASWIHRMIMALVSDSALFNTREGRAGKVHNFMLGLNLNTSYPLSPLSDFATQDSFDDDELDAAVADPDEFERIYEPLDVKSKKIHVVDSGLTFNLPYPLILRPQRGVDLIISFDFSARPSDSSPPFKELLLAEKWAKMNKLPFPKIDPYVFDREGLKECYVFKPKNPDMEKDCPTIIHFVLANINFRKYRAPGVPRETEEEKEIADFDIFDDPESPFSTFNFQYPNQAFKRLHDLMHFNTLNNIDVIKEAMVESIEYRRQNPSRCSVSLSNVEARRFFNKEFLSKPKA
Assay: In vitro Group IVA cPLA2 mixed micelle assay
Type: biochemical
measureName: inhibition of GIVA PLA2 (cPLA2), in words

INSERT INTO assay_data (compound, measvalue) VALUES
  ('CCC(=O)C(=O)NCCCC(=O)O [AX006]', 'inhibit GIVA PLA2'),
  ('CCCCCCCCCCCCCCC(=O)C(=O)NC(C=CC(=O)O)CCCC (stereo not shown) [AX074]', 'inhibit GIVA PLA2'),
  ('CCCCCCCCC=CCCCCCCCC(=O)C(=O)NCCCC(=O)O [AX040]', 'inhibit GIVA PLA2');
